# TARGET_OR_TEST_SYSTEM: T1, human LAG3 (form used in Octet, Biacore and HDX-MS not given) (human, UniProt P18627 23-450, limits assumed)
# T1 sequence (looked up): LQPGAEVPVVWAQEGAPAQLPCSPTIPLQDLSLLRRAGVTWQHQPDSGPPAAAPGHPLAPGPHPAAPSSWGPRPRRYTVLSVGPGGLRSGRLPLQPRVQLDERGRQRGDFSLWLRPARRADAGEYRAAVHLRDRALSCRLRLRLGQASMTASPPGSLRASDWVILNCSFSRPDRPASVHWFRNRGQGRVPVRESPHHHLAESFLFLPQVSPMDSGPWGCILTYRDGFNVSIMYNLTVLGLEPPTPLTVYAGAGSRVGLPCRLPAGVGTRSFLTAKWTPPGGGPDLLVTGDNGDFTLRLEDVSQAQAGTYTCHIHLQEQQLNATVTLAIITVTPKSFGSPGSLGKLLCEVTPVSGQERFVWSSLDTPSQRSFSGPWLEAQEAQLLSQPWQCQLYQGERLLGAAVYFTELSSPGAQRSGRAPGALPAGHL
# EXPERIMENTAL_PROTOCOL: BLI (Octet), 1:1 fit
# Experimental: The association and dissociation curves were fit with 1:1 binding model, and the Ka/Kd/KD values for each antibody were calculated.
MEASUREMENT_LABEL: koff (s⁻¹)
Give bare numbers, in s⁻¹.

// worked examples, koff included
Exam item: // fetch koff given entry hu021.279 (antibody, V domains shown, humanized from 021c; also called hu21.279) VH: QIQLQESGPGLVKPGQTLSLTCTVSGYSITSGYYWTWIRQHPGNKLEWIGDISYDAGNNYNPSLKNRITISRDTSKNQFSLKLSSVTAEDTATYYCARDITLTGAMDYWGQGTTVTVSS VL: EIVLTQSPATLSLSPGERATLSCRASESVDNYGISFMHWYQQKPGQAPRLLIYRASNLESGIPARFSGSGSGTDFTLTISSLEPEDFAVYYCQQSNKDPYTFGQGTKLEIK
Marked response: 0.00313

Exam item: Find the measured koff of hu021.269 (antibody, V domains shown, humanized from 021c) VH: QVQLQESGPGLVKPSQTLSLTCTVSGYSITSGYYWNWIRQHPGNKLEWIGDISYDGGNNYNPSLKNRVTISRDTSKNQFSLKLSSVTAADTAVYYCARDITLTGAMDYWGQGTTVTVSS VL: EIVLTQSPATLSLSPGERATLSCRASESVDNYGISFMHWYQQKPGQAPRLLIYRASNRESGIPARFSGSGSRTDFTLTISSLEPEDFAVYYCQQSNKDPYTFGQGTKLEIK and report it.
Marked response: 0.00314

Then there is this binder:
Exam item: Fill in reported koff for this entry: hu029.40 (antibody, V domains shown, humanized from 029c) VH: QVQLVESGGGLVKPGGSLRLSCAASGFTFSSYAMSWVRQAPGKRLEWVAYVTSGGDYIYYADTVKGRFTISRDDAKNSLYLQMNSLRAEDTAMYYCTRVAYDYEWYFDVWGQGALVTVSS VL: DIQMTQSPSSVSTSVGDRVTITCKASQDVTTAVAWYQQKPGKAPKLLIYSASYRYTGVPSRFSGSGSGTDFTFTISSVQPEDFATYYCQQHDSSPWTFGQGTKLEIK
Marked response: 0.0224
